Origin of values: ChEMBL document CHEMBL1255553

Tested on: CCRF-CEM
Protocol summary: Anticancer activity against human CCRF-CEM cells
Type: functional, cell-based
Measured attribute: IC50 (µM)

[
  {
    "Molecule": "CC(C)=CCC[C@@](C)(O)[C@@H]1CC/C(C)=C/CC/C(C)=C/Cc2cc(ccc2O)C(=O)O1 [CALLOPHYCOLIDE A]",
    "Result value": 7.5
  }
]

###

Quick reference: MIC of the listed items.
Test system: Enterococcus faecium
Protocol summary: Antimicrobial activity against vancomycin-resistant Enterococcus faecium
Assay type: functional

[
  {
    "Compound": "CC1=C2Cc3cc(ccc3O)C(=O)O[C@H](C(C)(C)Br)CC[C@](C)(O)[C@H](Br)CC[C@]2(C)[C@@H](Br)CC1",
    "Result qualifier": "=",
    "MIC / µM": 5.9
  },
  {
    "Compound": "CC1=CC(=O)C=C(CC[C@](C)(O)CCC[C@H](C)CCC[C@H](C)CCCC(C)C)C1=O",
    "Result qualifier": ">",
    "MIC / µM": 500
  },
  {
    "Compound": "Cc1cc(O)cc(CC[C@](C)(O)CCC[C@H](C)CCC[C@H](C)CCCC(C)C)c1O",
    "Result qualifier": ">",
    "MIC / µM": 500
  },
  {
    "Compound": "CC(C)=CCC[C@@](C)(O)[C@@H]1CC/C(C)=C/CC/C(C)=C/Cc2cc(ccc2O)C(=O)O1 [CALLOPHYCOLIDE A]",
    "Result qualifier": "=",
    "MIC / µM": 9.1
  },
  {
    "Compound": "Cc1cc(O)c(C)c(CC[C@](C)(O)CCC[C@H](C)CCC[C@H](C)CCCC(C)C)c1O",
    "Result qualifier": ">",
    "MIC / µM": 500
  }
]

###

System: Staphylococcus aureus
Protocol summary: Antimicrobial activity against methicillin-resistant Staphylococcus aureus
Type: functional
Quick reference: MIC of the listed items.

[
  {
    "Compound": "Cc1cc(O)c(C)c(CC[C@](C)(O)CCC[C@H](C)CCC[C@H](C)CCCC(C)C)c1O",
    "MIC": "> 500 µM"
  },
  {
    "Compound": "CC1=C2Cc3cc(ccc3O)C(=O)O[C@H](C(C)(C)Br)CC[C@](C)(O)[C@H](Br)CC[C@]2(C)[C@@H](Br)CC1",
    "MIC": "5.9 µM"
  },
  {
    "Compound": "CC1=CC(=O)C=C(CC[C@](C)(O)CCC[C@H](C)CCC[C@H](C)CCCC(C)C)C1=O",
    "MIC": "> 500 µM"
  },
  {
    "Compound": "Cc1cc(O)cc(CC[C@](C)(O)CCC[C@H](C)CCC[C@H](C)CCCC(C)C)c1O",
    "MIC": "> 500 µM"
  },
  {
    "Compound": "CC(C)=CCC[C@@](C)(O)[C@@H]1CC/C(C)=C/CC/C(C)=C/Cc2cc(ccc2O)C(=O)O1 [CALLOPHYCOLIDE A]",
    "MIC": "9.1 µM"
  }
]
